# Test system: ATP;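 note: ATP exposure 15 min at 22 °C before imaging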
# Test details: switch fluorescence ratio, 500 uM ATP over buffer (Cy3 cluster intensity, sum of 5 cycles each) (fold (ratio)); higher = stronger signal-on switching upon ATP binding; sequences stand for … in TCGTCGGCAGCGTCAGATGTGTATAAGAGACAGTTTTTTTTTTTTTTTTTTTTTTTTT…TC
# Conditions: aptamer strand: ATP DNA aptamer (quencher-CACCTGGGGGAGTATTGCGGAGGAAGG + anchor), 100 nM annealed; ATP concentration: 500 uM
Recorded endpoint: switch fluorescence ratio
Just the number, please, no unit attached.

For the sequence TTTTGGGTTA , give its measured switch fluorescence ratio value. 0.992

# return recorded switch fluorescence ratio for input CTGTAGTTTT 1.04

Identify switch fluorescence ratio associated with the sequence AGACGGAGGG 1.01
